Just for reference, patent US4226877A is where these values come from.

Tested on: brain level of homovanillic acid (HVA)
TEST: Effect of drug compounds on brain level of homovanillic acid (HVA) in rats
Assay type: in vivo, male Long Evans rats
MEASUREMENT CONDITIONS: Dose 0.15 (moles/kg body weight), intraperitoneal; brains (minus cerebella) removed two or three hours later; control = 1
# if value of HVA Level; Compound : Control Ratio reaches 2, tag condition met; if it stays below, tag condition not met

Determine whether this compound has HVA Level; Compound : Control Ratio no lower than 2: CCN1CCCC1CNC(=O)c1c(C)nn(C(C)C)c1OC (stereo not drawn) [II]
condition not met

Can CCN1CCCC1CNC(=O)c1c(C)nn(C)c1OC (stereo not drawn) [I] be said to have HVA Level; Compound : Control Ratio at or above 2?
condition met

Reported HVA Level; Compound : Control Ratio at or above 2? CCN1CCCC1CNC(=O)c1c(C)nn(-c2ccccc2)c1OC (stereo not drawn) [V]
condition met

Given the entry CCN1CCCC1CNC(=O)c1cc(S(N)(=O)=O)ccc1OC (stereo not drawn) [Sulpiride, reference compound] , answer whether its HVA Level; Compound : Control Ratio meets or surpasses 2.
condition met

Assess whether reported HVA Level; Compound : Control Ratio for CCN1CCCC1CNC(=O)c1c(C)nn(C(C)C)c1O (stereo not drawn) [IV] sits at 2 or higher.
condition met

Attention now turns to another entry.
Would you say CCN1CCCC1CNC(=O)c1c(C(C)C)nn(C)c1OC (stereo not drawn) [III] shows HVA Level; Compound : Control Ratio at minimum 2?
condition not met

###

Test system: methamphetamine-induced hyperactivity
TEST: Rat methamphetamine antagonism test
Type: in vivo, Male, Long-Evans, black hooded rats
MEASUREMENT CONDITIONS: oral dose 5 mg/kg; methamphetamine 1 mg/kg i.p. one hour later
Method: The second test for identifying potential antipsychotic properties was the rat methamphetamine antagonism test. […] Three rats were tested at each dose level. Placebo controls received a volume dose of the 0.5% carboxymethylcellulose vehicle. […] Antagonism of methamphetamine-induced hyperactivity was recorded as digital counts received from the photocells at one and two hour intervals. […]
Entries and their % Change From Placebo Control
Report the figure in % without appending any unit label.

// worked examples, % Change From Placebo Control included
Please look up its % Change From Placebo Control: CCN1CCCC1CNC(=O)c1c(C(C)C)nn(C)c1OC (stereo not shown)
-31

Looking for the measured % Change From Placebo Control of CCN1CCCC1CNC(=O)c1c(C)nn(C(C)C)c1OC (stereo not shown) , can you help?
-16

Given CCN1CCCC1CNC(=O)c1c(C)nn(C)c1OC (stereo not shown) , state its recorded % Change From Placebo Control.
-9

Now for another entry.
Would you kindly share the measured % Change From Placebo Control for CCN1CCCC1CNC(=O)c1c(C)nn(-c2ccccc2)c1OC (stereo not shown) ?
-23

###

Test system: methamphetamine-induced hyperactivity
TEST: Rat methamphetamine antagonism test
Assay type: in vivo, Male, Long-Evans, black hooded rats
MEASUREMENT CONDITIONS: oral dose 5 mg/kg; methamphetamine 1 mg/kg i.p. one hour later
Protocol: The second test for identifying potential antipsychotic properties was the rat methamphetamine antagonism test. […] Three rats were tested at each dose level. Placebo controls received a volume dose of the 0.5% carboxymethylcellulose vehicle. […] Antagonism of methamphetamine-induced hyperactivity was recorded as digital counts received from the photocells at one and two hour intervals. […]
RESULT TYPE: % Change From Placebo Control

Field: example entries. Status: answers known.
Given the entry CN(C)CCCN1c2ccccc2Sc2ccc(Cl)cc21 [Chlorpromazine, reference compound] , report its measured % Change From Placebo Control.
+10%

So what does the record say about % Change From Placebo Control for CCN1CCCC1CNC(=O)c1c(C)nn(C(C)C)c1O (stereo not drawn) ?
+35%

Next molecule, please.
I'd like to know its % Change From Placebo Control. The molecule in question is CCN1CCCC1CNC(=O)c1cc(S(N)(=O)=O)ccc1OC (stereo not drawn) [Sulpiride, reference compound]
+27%
